Ref: ChEMBL document CHEMBL5226310

EXPERIMENTAL TARGET: Acid-sensing ion channel 1 (Homo sapiens, UniProt P78348)
Sequence (P78348 whole entry): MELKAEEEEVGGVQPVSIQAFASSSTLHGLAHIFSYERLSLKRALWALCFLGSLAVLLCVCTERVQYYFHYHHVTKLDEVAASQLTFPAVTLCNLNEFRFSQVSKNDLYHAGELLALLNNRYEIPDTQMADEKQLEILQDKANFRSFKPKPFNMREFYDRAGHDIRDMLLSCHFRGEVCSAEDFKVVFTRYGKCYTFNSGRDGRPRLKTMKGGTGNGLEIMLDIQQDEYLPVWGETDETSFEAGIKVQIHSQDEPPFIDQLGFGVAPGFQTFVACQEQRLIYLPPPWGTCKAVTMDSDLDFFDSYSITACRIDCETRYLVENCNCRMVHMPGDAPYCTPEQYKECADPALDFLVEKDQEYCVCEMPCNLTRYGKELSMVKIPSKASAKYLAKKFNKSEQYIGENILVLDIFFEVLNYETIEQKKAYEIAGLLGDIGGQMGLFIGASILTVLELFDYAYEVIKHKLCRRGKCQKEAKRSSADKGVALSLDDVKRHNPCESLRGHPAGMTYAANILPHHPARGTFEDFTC
PROTOCOL: Inhibition of human ASIC1a in HEK293 cells assessed as inward proton-gated current at pH 6.0 incubated with compound followed by PcTx1 addition by patch-clamp electrophysiology
Type: cell-based
pIC50: −log10 of the molar value.
QUANTITY: pIC50

Use the examples below as a reference point.
* COc1ccc(Cn2nc(-c3ccc(/C=N/NC(=N)N)cc3)cc2-c2ccc(/C=N/NC(=N)N)cc2)cc1 | 6.29
* Cn1nc(-c2ccc(/C=N/NC(=N)N)cc2)cc1-c1ccc(/C=N/NC(=N)N)cc1 | 5.85
* Br.Br.C(=N/NC1=NCCN1)/c1ccc(-c2cc(-c3ccc(/C=N/NC4=NCCN4)cc3)[nH]n2)cc1 | 6.01

[a] Cn1nc(-c2ccc(F)cc2)cc1-c1ccc(/C=N/NC(=N)N)cc1
[b] N=C(N)N/N=C/c1ccc(-c2cc(-c3ccc(Br)cc3)n[nH]2)cc1
[c] Cl.Cl.N=C(N)N/N=C\c1ccc(-c2cc(-c3ccc(/C=N\NC(=N)N)cc3)[nH]n2)cc1
[d] N=C(N)N/N=C/c1ccc(-c2cc(-c3ccc(F)cc3)on2)cc1
[e] Cl.N=C(N)N/N=C\c1ccc(-c2cccc(-c3ccc(/C=N/NC(=N)N)cc3)c2)cc1
Qu. Sequence the entries by pIC50, beginning with the highest number. Labels, requested order.
Ans. e, c, b, a, d
